Provenance of the data: patent US20230105029A1

target: T1, recombinant human IL4Rα-his protein (in house made) (human, UniProt P24394 26-232, limits assumed); assay: competitive ELISA, blocks biotin-IL4Rα-his binding to coated Benchmark (competitor)
T1 construct: also called Human IL4Ra-his
Property name: IC50 (nM)
Write the answer as a number in nM, unit excluded.

IC50 recorded for this binder, huC2C1A1A1-V14 (antibody, human IgG4 S228P, kappa, V domains shown, Humanized, human IgG4/kappa) VH: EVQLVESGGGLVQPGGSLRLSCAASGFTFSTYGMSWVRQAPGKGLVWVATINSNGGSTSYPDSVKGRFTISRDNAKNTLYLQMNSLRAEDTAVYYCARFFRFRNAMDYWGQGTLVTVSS VL: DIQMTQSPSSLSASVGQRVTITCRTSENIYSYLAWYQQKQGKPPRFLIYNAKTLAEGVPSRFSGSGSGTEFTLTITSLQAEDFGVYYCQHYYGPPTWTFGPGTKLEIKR , is 0.17
